B1: KRT13 (parent)
chain: YGGGLGGGFGGGFAGGFVDFGACD

Variants of: B1
Test: protein stability index of a GFP-peptide fusion (GPS, HEK-293T) (PSI 1-6); higher = more stable;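 note: lentivirally expressed fusions sorted by FACS into six bins by GFP to DsRed ratio, PSI derived from sequencing read proportions per bin multiplied by bin number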
Settings: c terminus: a fixed tail appended
Given measured protein stability index, output t if it is greater than or equal to 2 and f if not.

• D19G = t
• G11L = t
• G21A = t
• G4M = f
• G11S = f
• G8K = f
• Y1K = t
• F9T = t
• G10H = f
• A14Q = t
• F17G = f
• Y1G = t
• F13E = t
• G12E = f
• F17C = t
• F9E = t
• F13H = t
• A14N = f
• G16Y = t
• G10Y = t
• D24F = t
• G3D = f
• G15R = t
• G3T = t
• G6K = f
• G8C = f
• G7M = t
• F17Q = f
• V18R = t
• F9V = f
• G10I = f
• G7T = f
• L5K = f
• L5M = f
• G11Q = f
• F9G = f
• G3R = t
• A22E = f
• G16C = t
• F9A = f
• G8I = t
• G12F = t
• F13P = t
